Test system: TK-10
Experiment: NCI tumour cell line growth inhibition, 48 h
Calls of active or inactive are those of the source. Cut-off read from the data, not from the text of the source: active = GI50 up to about 1.1 µM and inactive = higher. Numbered stars: 1 amine (or outer) side, 2 acyl side, 3 side chain; on linkers, the order of the positions; unused ones are H or OH. Square brackets hold non-standard residues; d marks the D form. Peptide text beside a SMILES is read from it. X55 = CC[C@H](C)[C@H](OC(=O)[C@@H](C)[C@@H](CC)N[*:1])C(=O)[*:2]; X31 = C[C@H](N[*:1])C(=O)C(C)(C)C(=O)[*:2]; NMeY = CN[C@@H](Cc1ccc(O)cc1)C(=O)O; NMeL = CN[C@@H](CC(C)C)C(=O)O; NMeV = CN[C@H](C(=O)O)C(C)C
Log the outcome using a class from active, inactive

- Compound: "CCOc1cc(NC(C)=O)ccc1C(=O)NN1C(=O)CSC1c1ccccc1 (configuration not stated)"
  Assay system: "TK-10"
  Discrete label: "inactive"
- Compound: "CC(=O)OCC1OC(OCC2OC(N3C(=S)N[C@H]([C@@H](O)[C@H](O)[C@H](O)CO)[C@H]3O)C(OC(C)=O)C(OC(C)=O)C2OC(C)=O)C(OC(C)=O)C(OC(C)=O)C1OC(C)=O (some centres not stated)"
  Assay system: "TK-10"
  Discrete label: "inactive"
- Compound: "N#Cc1ccccc1-c1nc2c3c(c(N)ccc3n1)C(=O)c1ccccc1-2"
  Assay system: "TK-10"
  Discrete label: "inactive"
- Compound: "CCOC(=O)Cc1nnc2c(-c3ccccc3)nc3ccccc3n12"
  Assay system: "TK-10"
  Discrete label: "inactive"
- Compound: "CC(C)(C)OC1=C(OC(C)(C)C)C(O)(c2ccccc2)C1=O (configuration not stated)"
  Assay system: "TK-10"
  Discrete label: "inactive"
- Compound: "CCN(CC)c1ccc(C(=O)c2ccccc2C(=O)O)c(O)c1"
  Assay system: "TK-10"
  Discrete label: "inactive"

Now let's try a different one.
Ask: Field: outcome | Entry: CC[C@H](C)[C@@H]1OC(=O)[C@@H](C)[C@@H](CC)NC(=O)[C@H](C)NC(=O)C(C)(C)C(=O)[C@H](C)NC(=O)[C@H](Cc2ccc(OC)cc2)N(C)C(=O)[C@H](C(C)C)N(C)C(=O)CNC(=O)[C@H](CC(C)C)N(C)C(=O)CNC1=O [DOLASTATIN 11] (cyclo(A[X55]G[NMeL]G[NMeV][NMeY](Me)[X31]))
Reply: active
